- Tested on: 994946-033-R-J1-PDC complex spheroid viability
- protocolText: Anticancer human tumor 994946-033-R-J1-PDC patient-derived melanoma cell line growth inhibition [POLQ]; active = viability on the fitted dose curve at most 10% of control; inactive = the rest
- measurementContext: second compound 10 µM; first compound 0.316 µM
The categories you may choose from are active, inactive

Some solved entries appear below for comparison.
| molecule | category |
| --- | --- |
| COc1cc2cc(C(=O)CCC(=O)O)sc2cc1OC + Cc1cccc(N(C)C(=O)C2C(O)CCN2c2nc(C)cc(C(F)(F)F)c2C#N)c1 | inactive |
| COc1cccc2c1C(=O)c1c(O)c3c(c(O)c1C2=O)CC(O)(C(=O)CO)CC3OC1CC(N)C(O)C(C)O1 (stereo not given) + Nc1ccc(C#CCN(C(=O)Cc2ncc(C(F)(F)F)cc2C(F)(F)F)c2ccc(F)cc2)nn1 | active |
| C=CC(=O)N1CCN(c2nc(=O)n(-c3c(C)ccnc3C(C)C)c3nc(-c4c(O)cccc4F)c(F)cc23)C(C)C1 (stereo not given) + Nc1ccc(C#CCN(C(=O)Cc2ncc(C(F)(F)F)cc2C(F)(F)F)c2ccc(F)cc2)nn1 | inactive |
| O=C(Nc1ccc(O)c(NS(=O)(=O)c2ccc(F)cc2)c1)c1ccc(-c2ccccc2)cc1 + Cc1cccc(N(C)C(=O)C2C(O)CCN2c2nc(C)cc(C(F)(F)F)c2C#N)c1 | inactive |

stdin: Recorded test outcome, item CCc1cc2c(N3CCc4c(cc(Cn5ccnc5)cc4-c4cn(C)nc4C(F)(F)F)C3=O)ccnc2c(OC)n1 + COC1C(OC(N)=O)C(O)C(Oc2ccc3c(O)c(NC(=O)c4ccc(O)c(CC=C(C)C)c4)c(=O)oc3c2C)OC1(C)C
stdout: inactive

====

- Tested on: 994946-033-R-J1-PDC complex spheroid viability
- protocolText: Anticancer human tumor 994946-033-R-J1-PDC cell line growth inhibition [POLQ];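 also: spheroids exposed to drugs for 7 days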
- measurementContext: curve of first compound; second compound 0.316 µM
Each entry below lists one item and its recorded IC50 value.

Examples from the recorded data:
| compound | IC50 |
| --- | --- |
| CCc1c2c(nc3ccc(O)cc13)-c1cc3c(c(=O)n1C2)COC(=O)[C@]3(O)CC + Nc1ccc(C#CCN(C(=O)Cc2ncc(C(F)(F)F)cc2C(F)(F)F)c2ccc(F)cc2)nn1 | < 0.00316 µM |
| CNCc1ccc(-c2[nH]c3cc(F)cc4c3c2CCNC4=O)cc1 + COC1C(OC(N)=O)C(O)C(Oc2ccc3c(O)c(NC(=O)c4ccc(O)c(CC=C(C)C)c4)c(=O)oc3c2C)OC1(C)C | > 10 µM |

Entry under test: O=c1[nH]cc(F)c(=O)[nH]1 + Nc1ccc(C#CCN(C(=O)Cc2ncc(C(F)(F)F)cc2C(F)(F)F)c2ccc(F)cc2)nn1 . Its IC50 was > 10 µM

====

- System: 994946-033-R-J1-PDC complex spheroid viability
- protocolText: Anticancer human tumor 994946-033-R-J1-PDC cell line growth inhibition [POLQ]; active means viability on the fitted dose curve at most 10% of control; inactive means the rest;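 also: spheroids exposed to drugs for 7 days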
- measurementContext: second compound 10 µM; first compound 10 µM
The categories you may choose from are yes (1) (active), no (0) (inactive)

| compound | category |
| --- | --- |
| COc1cc2cc(C(=O)CCC(=O)O)sc2cc1OC + Cc1cccc(N(C)C(=O)C2C(O)CCN2c2nc(C)cc(C(F)(F)F)c2C#N)c1 | no (0) |

stdin: Recorded test outcome, item CC1COCCN1c1cc(C2(O)CC3CCC(C2)O3)c2cnn(-c3ccn[nH]3)c2n1 (stereo not given) + Cc1cccc(N(C)C(=O)C2C(O)CCN2c2nc(C)cc(C(F)(F)F)c2C#N)c1
stdout: yes (1)

stdin: Recorded test outcome, item COc1cc2cc(C(=O)CCC(=O)O)sc2cc1OC + COC1C(OC(N)=O)C(O)C(Oc2ccc3c(O)c(NC(=O)c4ccc(O)c(CC=C(C)C)c4)c(=O)oc3c2C)OC1(C)C
stdout: no (0)

stdin: Recorded test outcome, item CNCc1ccc(-c2[nH]c3cc(F)cc4c3c2CCNC4=O)cc1 + Nc1ccc(C#CCN(C(=O)Cc2ncc(C(F)(F)F)cc2C(F)(F)F)c2ccc(F)cc2)nn1
stdout: no (0)

stdin: Recorded test outcome, item CC1COCCN1c1cc(C2(S(C)(=N)=O)CC2)nc(-c2ccnc3[nH]ccc23)n1 (stereo not given) + Nc1ccc(C#CCN(C(=O)Cc2ncc(C(F)(F)F)cc2C(F)(F)F)c2ccc(F)cc2)nn1
stdout: no (0)

stdin: Recorded test outcome, item CCc1cc2c(N3CCc4c(cc(Cn5ccnc5)cc4-c4cn(C)nc4C(F)(F)F)C3=O)cc(C)nc2c(OC)n1 + Cc1cccc(N(C)C(=O)C2C(O)CCN2c2nc(C)cc(C(F)(F)F)c2C#N)c1
stdout: no (0)

====

- Tested on: 994946-033-R-J1-PDC complex spheroid viability
- protocolText: Anticancer human tumor 994946-033-R-J1-PDC cell line growth inhibition [POLQ];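 also: spheroids exposed to drugs for 7 days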;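 as to viability, T/C: 100% = DMSO vehicle treated spheroids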
- measurementContext: second compound 10 µM; first compound 3.16 µM; stronger effect = lower value
Each entry below lists one item and its recorded viability, T/C value.
Dear colleague, please return just the value in %, with no unit written.

Examples from the recorded data:
| molecule | endpointUnit | viability, T/C |
| --- | --- | --- |
| C#Cc1c(F)ccc2cc(O)cc(-c3ncc4c(N5CC6CCC(C5)N6)nc(OCC56CCCN5CC(F)C6)nc4c3F)c12 (centres undefined) + Cc1cccc(N(C)C(=O)C2C(O)CCN2c2nc(C)cc(C(F)(F)F)c2C#N)c1 | % | 114 |
| O=C(c1cc(Cc2n[nH]c(=O)c3ccccc23)ccc1F)N1CCN(C(=O)C2CC2)CC1 + Cc1cccc(N(C)C(=O)C2C(O)CCN2c2nc(C)cc(C(F)(F)F)c2C#N)c1 | % | 77.5 |
| COc1ccc([C@@H](O)c2cc(-c3ncnc4cc(N5CCOCC5)ccc34)c(F)cc2Cl)nn1 + COC1C(OC(N)=O)C(O)C(Oc2ccc3c(O)c(NC(=O)c4ccc(O)c(CC=C(C)C)c4)c(=O)oc3c2C)OC1(C)C | % | 60 |

With those in mind, consider the next molecule.
Entry under test: CCCS(=O)(=O)Nc1ccc(F)c(C(=O)c2c[nH]c3ncc(-c4ccc(Cl)cc4)cc23)c1F + COC1C(OC(N)=O)C(O)C(Oc2ccc3c(O)c(NC(=O)c4ccc(O)c(CC=C(C)C)c4)c(=O)oc3c2C)OC1(C)C . Its viability, T/C was 99.9

====

Each entry below lists one item and its recorded pIC50 value.
- System: 994946-033-R-J1-PDC complex spheroid viability
- protocolText: Anticancer human tumor 994946-033-R-J1-PDC cell line growth inhibition [POLQ];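 also: spheroids exposed to drugs for 7 days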
- measurementContext: curve of first compound; second compound 0.1 µM
pIC50: −log10 of the molar value.

| compound | pIC50 |
| --- | --- |
| Nc1ccn(C2OC(CO)C(O)C2(F)F)c(=O)n1 (stereo not drawn) + Nc1ccc(C#CCN(C(=O)Cc2ncc(C(F)(F)F)cc2C(F)(F)F)c2ccc(F)cc2)nn1 | > 7.50 |
| CC(C)n1c(=O)n(C)c2cnc3cc(F)c(-c4ccc(OCCCN5CCCCC5)nc4)cc3c21 + Nc1ccc(C#CCN(C(=O)Cc2ncc(C(F)(F)F)cc2C(F)(F)F)c2ccc(F)cc2)nn1 | < 5.00 |

With those in mind, consider the next compound.
Entry under test: C=CCn1c(=O)c2cnc(Nc3ccc(N4CCN(C)CC4)cc3)nc2n1-c1cccc(C(C)(C)O)n1 + Cc1cccc(N(C)C(=O)C2C(O)CCN2c2nc(C)cc(C(F)(F)F)c2C#N)c1 . Its pIC50 was < 6.00

====

- System: 994946-033-R-J1-PDC complex spheroid viability
- protocolText: Anticancer human tumor 994946-033-R-J1-PDC cell line growth inhibition [POLQ];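 also: spheroids exposed to drugs for 7 days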;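 as to viability, T/C: 100% = DMSO vehicle treated spheroids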
- measurementContext: second compound 0.0316 µM; first compound 0.316 µM; stronger effect = lower value
- Procedure: Multicellular complex tumor spheroid response to Polymerase (POL) inhibitors (novobiocin, ART-558, RP6685) in combination with a variety of drugs and investigational agents in selected tumor cell lines The POL inhibitors (novobiocin, ART-558, and RP6685) were evaluated both individually and in combination with standard of care and investigational anticancer small molecules within a complex spheroid model of solid tumors. . […]
Each entry below lists one item and its recorded viability, T/C value.

| compound | targetOrSystem | viability, T/C |
| --- | --- | --- |
| CNCc1ccc(-c2[nH]c3cc(F)cc4c3c2CCNC4=O)cc1 + Cc1cccc(N(C)C(=O)C2C(O)CCN2c2nc(C)cc(C(F)(F)F)c2C#N)c1 | 994946-033-R-J1-PDC complex spheroid viability | 132% |
| O=C(Nc1ccc(O)c(NS(=O)(=O)c2ccc(F)cc2)c1)c1ccc(-c2ccccc2)cc1 + Cc1cccc(N(C)C(=O)C2C(O)CCN2c2nc(C)cc(C(F)(F)F)c2C#N)c1 | 994946-033-R-J1-PDC complex spheroid viability | 112% |

With those in mind, consider the next compound.
Entry under test: C=CCn1c(=O)c2cnc(Nc3ccc(N4CCN(C)CC4)cc3)nc2n1-c1cccc(C(C)(C)O)n1 + Cc1cccc(N(C)C(=O)C2C(O)CCN2c2nc(C)cc(C(F)(F)F)c2C#N)c1 . Its viability, T/C was 73.3%

Data origin: PubChem BioAssay AID1963827
